Origin of measurements: patent US5349063A

- method description: Pancreas uptake and pancreas to liver ratio in Balb/c mice (radioiodine biodistribution)
- Format: in vivo
- test parameters: 24 hours after administration; I-125 label, 20 μg i.v., male Balb/c mice; mean ± standard deviation
Reported values of P/L (percent dose in pancreas / percent dose in liver) for individual entries
Please give only the number in your answer, with no unit.

Example entries begin here.
> print(dat)
                                   compound  measured.number
1  Cc1cc([125I])cc(CN(C)CCCN2CCOCC2)c1O [ERC 9]             2.54
2  Cc1cc([125I])cc(CN(C)CCCN2CCCC2)c1O [ERC 46]             7.47
3  CCN(CC)CCCN(C)Cc1cc([125I])cc(C)c1O [ERC 94]             4.03
4  Cc1cc([125I])cc(CN(C)CCCN2CCCCC2)c1O [ERC 90]             6.70

Let us move to another entry and its P/L (percent dose in pancreas / percent dose in liver).
Any idea what its P/L (percent dose in pancreas / percent dose in liver) is? The compound is Cc1cc([125I])cc(CN(C)CCCN(C)C)c1O [HIPDM, reference compound]
1.18

* * *

- method description: Pancreas uptake and pancreas to liver ratio in Balb/c mice (radioiodine biodistribution)
- Type: in vivo
- test parameters: 4 hours after administration; I-125 label, 20 μg i.v., male Balb/c mice; mean ± standard deviation
value kind: P/L (percent dose in pancreas / percent dose in liver)
Please give only the number in your answer, with no unit.

Example entries begin here.
> print(dat)
                                   compound  measured.number
1      Cc1cc([125I])cc(CN(C)CCCN2CCCCC2)c1O             2.12
2  Cc1cc([125I])cc(CN(C)CCCN(C)C)c1O [HIPDM, reference compound]             0.95
3      Cc1cc([125I])cc(CN(C)CCCN2CCOCC2)c1O             2.02
4       CCN(CC)CCCN(C)Cc1cc([125I])cc(C)c1O             1.61

Any idea what its P/L (percent dose in pancreas / percent dose in liver) is? The compound is Cc1cc([125I])cc(CN(C)CCCN2CCCC2)c1O
2.11

* * *

- method description: Pancreas uptake and pancreas to liver ratio in Balb/c mice (radioiodine biodistribution)
- Format: in vivo
- test parameters: 5 minutes after administration; I-125 label, 20 μg i.v., male Balb/c mice; mean ± standard deviation
Reported values of P/L (percent dose in pancreas / percent dose in liver) for individual entries
Please give only the number in your answer, with no unit.

Example entries begin here.
> print(dat)
                                   molecule  measured.number
1  Cc1cc([125I])cc(CN(C)CCCN2CCCCC2)c1O [ERC 90]             0.22
2  CCN(CC)CCCN(C)Cc1cc([125I])cc(C)c1O [ERC 94]             0.22
3  Cc1cc([125I])cc(CN(C)CCCN2CCOCC2)c1O [ERC 9]             0.40
4  Cc1cc([125I])cc(CN(C)CCCN(C)C)c1O [HIPDM, reference compound]             0.21

Let us move to another entry and its P/L (percent dose in pancreas / percent dose in liver).
Any idea what its P/L (percent dose in pancreas / percent dose in liver) is? The molecule is Cc1cc([125I])cc(CN(C)CCCN2CCCC2)c1O [ERC 46]
0.22
